SYSTEM_NAME: T1, Recombinant Human DLL4 (delta-like protein 4) (human, UniProt Q9NR61 27-524)
T1 construct: Bought recombinant protein (R&D Systems Cat#1506-D4/CF); also called rHuman DLL4; Delta-like 4
PROTOCOL_DESCRIPTION: ELISA, DLL4 coated on plate; Fab at 3.70 (head prints µM, text says nM)

BINDER	ELISA signal
Fab VH5-51_IGHD5-18*01>3_IGHJ4*01 G100K/G104T G24T/S28R/G35V (H:KT TRV) & V3-4_IGLJ1*01 V91L/S96P (L:LP) (Fab, V domains shown, Tested as a Fab made in E. coli; also called H:KT TRV & L:LP) VH: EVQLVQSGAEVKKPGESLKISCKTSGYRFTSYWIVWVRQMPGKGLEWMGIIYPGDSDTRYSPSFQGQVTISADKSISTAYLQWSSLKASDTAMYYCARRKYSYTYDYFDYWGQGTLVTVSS VL: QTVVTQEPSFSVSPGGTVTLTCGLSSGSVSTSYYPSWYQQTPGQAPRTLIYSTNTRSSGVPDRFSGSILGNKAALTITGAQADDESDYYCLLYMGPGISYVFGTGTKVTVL	0.03
